Target: IL-17RA/IL17RC dimerization induced by IL-17A (Homo sapiens)
Experiment: IL-17RA/IL17RC dimerization assay in response to IL-17A (PathHunter Cytokine Receptor Assay)
Assay type: cell-based
Conditions: IL-17A at EC80; read-out: IC50 in IL-17RA/IL7RC dimerization assay
Procedure: The peptides of Table 7 were tested for their ability to inhibit the binding of IL-17A to its receptor and the subsequent interaction of IL-17RA and IL17RC. […] In the PathHunter® Cytokine Receptor Assay, one cytokine receptor chain is tagged with a small peptide epitope ProLink (PK) and the other chain is tagged with Enzyme Acceptor (EA). […] This interaction generates an active unit of b-galactosidase, which is detected using a chemiluminescent substrate. […]
Residues, ends and D or L forms follow the SMILES beside them.
Reported IC50 is given for each of the following compounds.

| compound | IC50 |
| --- | --- |
| CC(=O)N[C@H](C(=O)N[C@@H](CCCNC(=N)N)C(=O)N[C@H](C(=O)N[C@H](C(=O)N[C@H](C(=O)N1CCC[C@H]1C(=O)N[C@@H](CCC(N)=O)C(=O)N[C@@H](CCC(=O)O)C(=O)N[C@@H](CC(C)C)C(=O)N[C@@H](Cc1ccc(O)cc1)C(=O)N[C@@H](CCC(=O)O)C(=O)N[C@@H](Cc1c[nH]c2ccccc12)C(=O)N[C@H](C(=O)N[C@@H](CCCNC(=N)N)C(=O)N[C@@H](CCCNC(=N)N)C(N)=O)C(C)C)C(C)C)[C@@H](C)O)C(C)C)C(C)C [SEQ ID NO: 234] (Ac-VRVTVPQELYEWVRR-NH2) | < 10 µM |

[ask] I would be grateful if you could share the reported IC50 for CC[C@H](C)[C@H](NC(C)=O)C(=O)N[C@@H](Cc1c[nH]cn1)C(=O)N[C@H](C(=O)N[C@H](C(=O)N[C@H](C(=O)N1CCC[C@H]1C(=O)N[C@@H](C)C(=O)N[C@@H](CC(=O)O)C(=O)N[C@@H](CC(C)C)C(=O)N[C@@H](Cc1c[nH]c2ccccc12)C(=O)N[C@@H](CC(=O)O)C(=O)N[C@@H](Cc1ccccc1)C(=O)N[C@H](C(=O)N[C@@H](CC(N)=O)C(=O)N[C@@H](CCCCN)C(N)=O)[C@@H](C)CC)[C@@H](C)CC)[C@@H](C)O)C(C)C [SEQ ID NO: 210] (Ac-IHVTIPADLWDFINK-NH2) .
[reply] < 10 µM

----------
assay: Isoelectric point, log D and log P (SiriusT3); format: physicochemical; details: pH 7.4, Log D (7.4)
Residues, ends and D or L forms follow the SMILES beside them.
value type: logD
Lab note: record the figure alone, no unit after it.

[ask] So what's the measured logD for this one? CC[C@H](C)[C@H](NC(C)=O)C(=O)N[C@@H](Cc1c[nH]cn1)C(=O)N[C@H](C(=O)N[C@H](C(=O)N[C@H](C(=O)N1CCC[C@H]1C(=O)N[C@@H](C)C(=O)N[C@@H](CC(=O)O)C(=O)N[C@@H](CC(C)C)C(=O)N[C@@H](Cc1c[nH]c2ccccc12)C(=O)N[C@@H](CC(=O)O)C(=O)N[C@@H](Cc1c[nH]c2ccccc12)C(=O)N[C@H](C(=O)N[C@@H](CCC(=O)O)C(=O)N[C@@H](CCCCN)C(N)=O)[C@@H](C)CC)[C@@H](C)CC)[C@@H](C)O)C(C)C [SEQ ID NO: 11] (Ac-IHVTIPADLWDWIEK-NH2)
[reply] -2.92

----------
type: physicochemical; details: pH 7.8
Residues, ends and D or L forms follow the SMILES beside them.
Let's look at some compounds and their measured solubility.

| compound | solubility |
| --- | --- |
| CC[C@H](C)[C@H](NC(=O)[C@H](CCC(N)=O)NC(=O)[C@@H](NC(=O)[C@H](Cc1c[nH]cn1)NC(=O)[C@@H](NC(C)=O)C(C)C)C(C)C)C(=O)N1CCC[C@H]1C(=O)N[C@@H](C)C(=O)N[C@@H](CC(=O)O)C(=O)N[C@@H](CC(C)C)C(=O)N[C@@H](Cc1c[nH]c2ccccc12)C(=O)N[C@@H](CCC(=O)O)C(=O)N[C@@H](Cc1c[nH]c2ccccc12)C(=O)N[C@H](C(=O)N[C@@H](CCCNC(=N)N)C(=O)N[C@@H](CCCNC(=N)N)C(N)=O)C(C)C [SEQ ID NO: 113] (Ac-VHVQIPADLWEWVRR-NH2) | < 0.05 mM |

Consider the additional compound presented here.
[ask] Form field: reported solubility of CC[C@H](C)[C@H](NC(C)=O)C(=O)N[C@@H](Cc1c[nH]cn1)C(=O)N[C@H](C(=O)N[C@H](C(=O)N[C@H](C(=O)N1CCC[C@H]1C(=O)N[C@@H](C)C(=O)N[C@@H](CC(=O)O)C(=O)N[C@@H](CC(C)C)C(=O)N[C@@H](Cc1c[nH]c2ccccc12)C(=O)N[C@@H](CC(=O)O)C(=O)N[C@@H](Cc1c[nH]c2ccccc12)C(=O)N[C@H](C(=O)N[C@@H](CC(N)=O)C(=O)N[C@@H](CCCNC(=N)N)C(N)=O)[C@@H](C)CC)[C@@H](C)CC)[C@@H](C)O)C(C)C [SEQ ID NO: 10] (Ac-IHVTIPADLWDWINR-NH2)
[reply] > 10 mM

----------
biological target: IL-17RA/IL17RC dimerization induced by IL-17A (Homo sapiens, UniProt Q16552); assay: IL-17RA/IL17RC dimerization assay in response to IL-17A (PathHunter Cytokine Receptor Assay); format: cell-based; conditions: IL-17A at EC80; read-out: IC50 in IL-17RA/IL7RC dimerization assay
Sequence (Q16552 24-155): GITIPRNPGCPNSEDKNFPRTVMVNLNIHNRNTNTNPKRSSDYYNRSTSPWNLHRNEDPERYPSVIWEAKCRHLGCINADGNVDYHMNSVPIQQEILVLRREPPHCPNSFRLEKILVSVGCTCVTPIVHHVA
pIC50: −log10 of the molar value. Residues, ends and D or L forms follow the SMILES beside them.
value type: pIC50

[ask] Recorded pIC50 of CC[C@H](C)[C@H](NC(C)=O)C(=O)N[C@@H](Cc1ccc(O)cc1)C(=O)N[C@H](C(=O)N[C@H](C(=O)N[C@H](C(=O)N1CCC[C@H]1C(=O)N[C@@H](C)C(=O)N[C@@H](CC(=O)O)C(=O)N[C@@H](CC(C)C)C(=O)N[C@@H](Cc1c[nH]c2ccccc12)C(=O)N[C@@H](CC(=O)O)C(=O)N[C@@H](Cc1c[nH]c2ccccc12)C(=O)N[C@H](C(=O)N[C@@H](CC(N)=O)C(=O)N[C@@H](CCCCN)C(N)=O)[C@@H](C)CC)[C@@H](C)CC)[C@@H](C)O)C(C)C [SEQ ID NO: 166] (Ac-IYVTIPADLWDWINK-NH2) , please.
[reply] > 5.00

----------
target: IL-17RA/IL17RC dimerization induced by IL-17A (Homo sapiens, UniProt Q16552); assay: IL-17RA/IL17RC dimerization assay in response to IL-17A (PathHunter Cytokine Receptor Assay); format: cell-based; details: IL-17A at EC80; read-out: IC50 in IL-17RA/IL7RC dimerization assay
pIC50: −log10 of the molar value. Residues, ends and D or L forms follow the SMILES beside them.
# pIC50 per record follows

Record excerpt, results attached:
| molecule | target or test system | pIC50 |
| --- | --- | --- |
| CC[C@H](C)[C@H](NC(C)=O)C(=O)N[C@@H](CCC(=O)O)C(=O)N[C@H](C(=O)N[C@H](C(=O)N[C@H](C(=O)N1CCC[C@H]1C(=O)N[C@@H](C)C(=O)N[C@@H](CC(=O)O)C(=O)N[C@@H](CC(C)C)C(=O)N[C@@H](Cc1c[nH]c2ccccc12)C(=O)N[C@@H](CC(=O)O)C(=O)N[C@@H](Cc1c[nH]c2ccccc12)C(=O)N[C@H](C(=O)N[C@@H](CC(N)=O)C(=O)N[C@@H](CCCCN)C(N)=O)[C@@H](C)CC)[C@@H](C)CC)[C@@H](C)O)C(C)C [SEQ ID NO: 164] (Ac-IEVTIPADLWDWINK-NH2) | IL-17RA/IL17RC dimerization induced by IL-17A (Homo sapiens, UniProt Q16552) | > 5.00 |
| CC[C@H](C)[C@H](NC(C)=O)C(=O)N[C@@H](Cc1c[nH]cn1)C(=O)N[C@H](C(=O)N[C@H](C(=O)N[C@H](C(=O)N1CCC[C@H]1C(=O)N[C@@H](CC(C)C)C(=O)N[C@@H](CCC(=O)O)C(=O)N[C@H](C(=O)N[C@@H](Cc1ccccc1)C(=O)N[C@@H](CCC(=O)O)C(=O)N[C@@H](Cc1c[nH]c2ccccc12)C(=O)N[C@@H](CC(C)C)C(=O)N[C@@H](CCC(N)=O)C(=O)N[C@@H](CCCNC(=N)N)C(N)=O)[C@@H](C)CC)[C@@H](C)CC)[C@@H](C)O)C(C)C [SEQ ID NO: 248] (Ac-IHVTIPLEIFEWLQR-NH2) | IL-17RA/IL17RC dimerization induced by IL-17A (Homo sapiens, UniProt Q16552) | > 5.00 |
| CC[C@H](C)[C@H](NC(=O)[C@@H](NC(=O)[C@H](Cc1ccccc1)NC(=O)[C@H](Cc1c[nH]cn1)NC(=O)[C@@H](NC(C)=O)C(C)C)[C@@H](C)O)C(=O)N1CCC[C@H]1C(=O)N[C@@H](CCC(N)=O)C(=O)N[C@@H](CC(=O)O)C(=O)N[C@@H](CC(C)C)C(=O)N[C@@H](Cc1ccc(O)cc1)C(=O)N[C@@H](CC(N)=O)C(=O)N[C@@H](Cc1c[nH]c2ccccc12)C(=O)N[C@@H](CCCNC(=N)N)C(=O)N[C@@H](CCCNC(=N)N)C(N)=O [SEQ ID NO: 151] (Ac-VHFTIPQDLYNWRR-NH2) | IL-17RA/IL17RC dimerization induced by IL-17A (Homo sapiens, UniProt Q16552) | > 6.30 |
| CC(=O)N[C@H](C(=O)N[C@@H](Cc1c[nH]cn1)C(=O)N[C@H](C(=O)N[C@@H](CO)C(=O)N[C@H](C(=O)N1CCC[C@H]1C(=O)N[C@@H](CCC(N)=O)C(=O)N[C@@H](CCC(=O)O)C(=O)N[C@@H](CC(C)C)C(=O)N[C@@H](Cc1c[nH]c2ccccc12)C(=O)N[C@@H](CCC(=O)O)C(=O)N[C@@H](Cc1c[nH]c2ccccc12)C(=O)N[C@H](C(=O)N[C@@H](CCCNC(=N)N)C(=O)N[C@@H](CCCNC(=N)N)C(N)=O)C(C)C)C(C)C)C(C)C)C(C)C [SEQ ID NO: 231] (Ac-VHVSVPQELWEWVRR-NH2) | IL-17RA/IL17RC dimerization induced by IL-17A (Homo sapiens, UniProt Q16552) | > 5.00 |
| CC(=O)N[C@H](C(=O)N[C@@H](Cc1c[nH]cn1)C(=O)N[C@H](C(=O)N[C@H](C(=O)N[C@@H](Cc1ccccc1)C(=O)N1CCC[C@H]1C(=O)N[C@@H](C)C(=O)N[C@@H](CC(=O)O)C(=O)N[C@@H](CC(C)C)C(=O)N[C@@H](Cc1c[nH]c2ccccc12)C(=O)N[C@@H](CCC(=O)O)C(=O)N[C@@H](Cc1c[nH]c2ccccc12)C(=O)N[C@@H](Cc1ccccc1)C(=O)N[C@@H](CCCNC(=N)N)C(=O)N[C@@H](CCCNC(=N)N)C(N)=O)[C@@H](C)O)C(C)C)C(C)C [SEQ ID NO: 144] (Ac-VHVTFPADLWEWFRR-NH2) | IL-17RA/IL17RC dimerization induced by IL-17A (Homo sapiens, UniProt Q16552) | > 6.30 |
| CC[C@H](C)[C@H](NC(C)=O)C(=O)N[C@@H](Cc1c[nH]cn1)C(=O)NCC(=O)N[C@H](C(=O)N[C@H](C(=O)N1CCC[C@H]1C(=O)N[C@@H](C)C(=O)N[C@@H](CC(=O)O)C(=O)N[C@@H](CC(C)C)C(=O)N[C@@H](Cc1c[nH]c2ccccc12)C(=O)N[C@@H](CC(=O)O)C(=O)N[C@@H](Cc1c[nH]c2ccccc12)C(=O)N[C@H](C(=O)N[C@@H](CC(N)=O)C(=O)N[C@@H](CCCCN)C(N)=O)[C@@H](C)CC)[C@@H](C)CC)[C@@H](C)O [SEQ ID NO: 168] (Ac-IHGTIPADLWDWINK-NH2) | IL-17RA/IL17RC dimerization induced by IL-17A (Homo sapiens, UniProt Q16552) | > 5.00 |

[ask] pIC50 lookup needed for CC[C@H](C)[C@H](NC(=O)[C@@H](NC(=O)[C@@H](NC(=O)[C@H](Cc1c[nH]cn1)NC(=O)[C@@H](NC(C)=O)C(C)C)C(C)C)[C@@H](C)O)C(=O)N1CCC[C@H]1C(=O)N[C@@H](C)C(=O)N[C@@H](CC(=O)O)C(=O)N[C@@H](CC(C)C)C(=O)N[C@@H](Cc1ccc(O)cc1)C(=O)N[C@@H](CCC(=O)O)C(=O)N[C@@H](Cc1c[nH]c2ccccc12)C(=O)N[C@H](C(=O)N[C@@H](CCCNC(=N)N)C(=O)N[C@@H](CCCNC(=N)N)C(N)=O)C(C)C [SEQ ID NO: 118] (Ac-VHVTIPADLYEWVRR-NH2) , thanks.
[reply] > 6.30

[ask] Need pIC50, item CC[C@H](C)[C@H](NC(C)=O)C(=O)N[C@@H](Cc1c[nH]cn1)C(=O)N[C@H](C(=O)N[C@H](C(=O)N[C@H](C(=O)N1CCC[C@H]1C(=O)N[C@@H](C)C(=O)N[C@@H](CCC(=O)O)C(=O)N[C@@H](CC(C)C)C(=O)N[C@@H](Cc1c[nH]c2ccccc12)C(=O)N[C@@H](CC(=O)O)C(=O)N[C@@H](Cc1c[nH]c2ccccc12)C(=O)N[C@H](C(=O)N[C@@H](CC(N)=O)C(=O)N[C@@H](CCCCN)C(N)=O)[C@@H](C)CC)[C@@H](C)CC)[C@@H](C)O)C(C)C [SEQ ID NO: 5] (Ac-IHVTIPAELWDWINK-NH2)
[reply] > 7.00

Ref: patent US11236129B2
